Value source: patent US20210380703A1

# tested.system: T1, Human ACVR2A (human, UniProt P27037 20-135, limits assumed); note: test concentration or dose not given here
# T1 construct: also called activin receptor, type II A
# T1 sequence (P27037 20-135 limits assumed): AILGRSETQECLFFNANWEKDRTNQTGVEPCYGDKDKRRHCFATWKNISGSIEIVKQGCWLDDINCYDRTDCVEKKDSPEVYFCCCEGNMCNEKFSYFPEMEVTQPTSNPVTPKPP
# assay.details: ELISA
quantity.name: optical density (OD)
// units = OD; emit number, no label

Sample records with optical density:
binder	quantity.name	units	reading
370_C03 (antibody, V domains shown) VH: EVQLLESGGGLVQPGGSLRLSCAASGFTFSSYGMNWVRQAPGKGLEWVAGINYNGGYKGYADSVKGRFTISRDNSKNTLYLQMNSLRAEDTAVYYCARSANWHDTALDYWGQGTLVTVSS VL: DIQMTQSPSSLSASVGDRVTITCRASQSILTYLNWYQQKPGKAPKLLIYYVTNRQSGVPSRFSGSGSGTDFTLTISSLQPEDFATYYCQQSYSSPLTFGGGTKVEIK	optical density	OD	3.59
369_C03 (antibody, V domains shown) VH: EVQLLESGGGLVQPGGSLRLSCAASGFTFSSYGMNWVRQAPGKGLEWVSNINYNGGYKSYADSVKGRFTISRDNSKNTLYLQMNSLRAEDTAVYYCARSANWHDTALDYWGQGTLVTVSS VL: DIQMTQSPSSLSASVGDRVTITCRASQSILTYLNWYQQKPGKAPKLVIYAATSRASGVPSRFSGSGSGTDFTLTISSLQPEDFATYYCQQSYDSPLTFGGGTKVEIK	optical density	OD	3.37
373_C08 (antibody, V domains shown) VH: EVQLLESGGGLVQPGGSLRLSCAASGFTFSSYSMNWVRQAPGKGLEWVANINYNGGYTSYADSVKGRFTISRDNSKNTLYLQMNSLRAEDTAVYYCARSANWHDTALDYWGQGTLVTVSS VL: DIQMTQSPSSLSASVGDRVTITCRASQSIISYLNWYQQKPGKAPKLLIYAASSLQSGVPSRFSGSGSGTDFTLTISSLQPEDFATYYCQQSYNNPLTFGGGTKVEIK	optical density	OD	3.05

Reported optical density of 369_F01 (antibody, V domains shown) VH: EVQLLESGGGLVQPGGSLRLSCAASGFTFSSYGMNWVRQAPGKGLEWVSGINYNGGYKSYADSVKGRFTISRDNSKNTLYLQMNSLRAEDTAVYYCARSANWHDTALDYWGQGTLVTVSS VL: DIQMTQSPSSLSASVGDRVTITCRASQSILTYVNWYQQKPGKAPKLLIYAATSRASGVPSRFSGSGSGTDFTLTISSLQPEDFATYYCQQSYELPLTFGGGTKVEIK : 3.28

The binder 369_D12 (antibody, V domains shown) VH: EVQLLESGGGLVQPGGSLRLSCAASGFTFDSYSMNWVRQAPGKGLEWVAGINYNSGYTSYADSVKGRFTISRDNSKNTLYLQMNSLRAEDTAVYYCARSANWHDTALDYWGQGTLVTVSS VL: DIQMTQSPSSLSASVGDRVTITCRASQSILSYLNWYQQKPGKAPKLLIYAATSLASGVPSRFSGSGSGTDFTLTISSLQPEDFATYYCQQSYDTPLTFGGGTKVEIK showed optical density equal to 3.04
